test system: RARb homodimer (NR concentration 270 nM); assay: PBM binding z-score (relative to random genomic background probes); higher = stronger binding; sequences stand for … in GC…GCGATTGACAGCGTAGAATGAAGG
EXPERIMENTAL_ENDPOINT: PBM binding z-score
Lab note: record just the number, no unit beside it.

Inquiry: Report PBM binding z-score, nothing else, for this sequence: `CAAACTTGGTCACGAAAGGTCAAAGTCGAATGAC`
Reply text: 4.71

Inquiry: Provide only the value of recorded PBM binding z-score for `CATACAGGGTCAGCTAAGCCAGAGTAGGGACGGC`
Reply text: 2.87

Inquiry: Return PBM binding z-score for the following sequence: `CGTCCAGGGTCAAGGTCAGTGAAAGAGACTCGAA`
Reply text: 4.96

Inquiry: Check the records and state PBM binding z-score for `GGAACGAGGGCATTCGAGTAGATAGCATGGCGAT`
Reply text: 0.0849

Inquiry: Fill in PBM binding z-score for record `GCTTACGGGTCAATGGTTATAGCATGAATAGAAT`
Reply text: 2.28

Inquiry: Look up and state reported PBM binding z-score for `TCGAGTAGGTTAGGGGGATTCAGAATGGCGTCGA`
Reply text: 0.809

Inquiry: Find the measured PBM binding z-score of `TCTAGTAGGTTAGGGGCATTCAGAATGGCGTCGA` and report it.
Reply text: 1.31

Inquiry: Read off the recorded PBM binding z-score for `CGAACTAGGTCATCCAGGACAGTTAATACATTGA`
Reply text: 3

Inquiry: Give the value of PBM binding z-score reported for the following: `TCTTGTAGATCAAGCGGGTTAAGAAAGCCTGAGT`
Reply text: 0.106

Inquiry: Annotate the sequence `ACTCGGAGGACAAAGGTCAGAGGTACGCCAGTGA` with its measured PBM binding z-score.
Reply text: 4.58

Inquiry: # return recorded PBM binding z-score for entry `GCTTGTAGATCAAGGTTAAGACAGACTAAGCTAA`
Reply text: 0.562

Inquiry: Using the record for `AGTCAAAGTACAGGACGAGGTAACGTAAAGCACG` , state its measured PBM binding z-score.
Reply text: 0.274

====

system: PXR:RXRa (NR concentration 270 nM, RXRa partner concentration 90 nM); assay: PBM binding z-score (relative to random genomic background probes); higher = stronger binding; sequences stand for … in GC…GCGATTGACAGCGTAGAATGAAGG
Hi, to clarify the labels: met covers PBM binding z-score from 0.3 upward, not met covers anything below 0.3.

Inquiry: Given the entry `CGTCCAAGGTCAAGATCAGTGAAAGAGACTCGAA` , answer whether its PBM binding z-score meets or surpasses 0.3.
Reply text: met

Inquiry: Reported PBM binding z-score at or above 0.3? `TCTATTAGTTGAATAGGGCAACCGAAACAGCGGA`
Reply text: met

Inquiry: Reported PBM binding z-score at or above 0.3? `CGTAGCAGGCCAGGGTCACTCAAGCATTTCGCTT`
Reply text: met

Inquiry: Determine whether this sequence has PBM binding z-score no lower than 0.3: `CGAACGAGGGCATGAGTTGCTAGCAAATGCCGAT`
Reply text: met

Inquiry: Say whether `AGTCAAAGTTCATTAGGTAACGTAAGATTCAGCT` shows PBM binding z-score of 0.3 or more.
Reply text: met

Inquiry: Form field: PBM binding z-score at least 0.3? Entry: `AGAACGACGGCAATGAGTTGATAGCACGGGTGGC`
Reply text: not met

Inquiry: Hi, just wondering whether `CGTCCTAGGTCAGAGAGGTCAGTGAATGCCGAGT` shows PBM binding z-score of 0.3 or higher.
Reply text: met

Inquiry: Confirm if PBM binding z-score reported for the sequence `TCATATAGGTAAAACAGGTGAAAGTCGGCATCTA` is 0.3 or above.
Reply text: met

Inquiry: Can `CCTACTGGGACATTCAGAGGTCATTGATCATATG` be said to have PBM binding z-score at or above 0.3?
Reply text: met

Inquiry: Is it the case that `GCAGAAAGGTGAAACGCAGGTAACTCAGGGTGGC` has PBM binding z-score reaching or exceeding 0.3?
Reply text: met

Inquiry: Kindly determine if PBM binding z-score recorded for `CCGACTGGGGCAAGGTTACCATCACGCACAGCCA` is above or exactly 0.3.
Reply text: not met

Inquiry: Identify whether the reported PBM binding z-score of the following sequence is 0.3 or greater: `ACAATTAGTTGACTTAGGGCAACCGATACGACGC`
Reply text: not met

Inquiry: Assess whether reported PBM binding z-score for `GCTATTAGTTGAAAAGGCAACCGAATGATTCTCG` sits at 0.3 or higher.
Reply text: not met

Inquiry: Entry `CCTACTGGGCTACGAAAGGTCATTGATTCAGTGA` : is its PBM binding z-score no less than 0.3?
Reply text: met

Inquiry: Decide: is the reported value of PBM binding z-score for `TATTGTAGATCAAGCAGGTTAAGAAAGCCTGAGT` equal to or greater than 0.3?
Reply text: not met

Inquiry: Does the reported PBM binding z-score for `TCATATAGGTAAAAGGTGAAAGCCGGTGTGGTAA` fall at or above the 0.3 mark?
Reply text: met

Inquiry: Determine whether measured PBM binding z-score meets or exceeds 0.3 for `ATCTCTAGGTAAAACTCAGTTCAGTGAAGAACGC`
Reply text: met

Inquiry: Given the entry `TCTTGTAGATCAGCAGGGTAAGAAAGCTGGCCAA` , answer whether its PBM binding z-score meets or surpasses 0.3.
Reply text: not met

Inquiry: Is reported PBM binding z-score greater than or equal to 0.3 here: `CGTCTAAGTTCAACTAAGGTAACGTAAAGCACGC`
Reply text: met

Inquiry: Has `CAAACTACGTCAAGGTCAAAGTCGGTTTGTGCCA` a recorded PBM binding z-score greater than or equal to 0.3?
Reply text: met

Inquiry: Quick check: does `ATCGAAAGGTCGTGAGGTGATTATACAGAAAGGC` have PBM binding z-score greater than or equal to 0.3?
Reply text: met

Inquiry: Say whether `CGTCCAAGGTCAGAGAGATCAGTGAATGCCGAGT` shows PBM binding z-score of 0.3 or more.
Reply text: met

Inquiry: Check this sequence for PBM binding z-score at or above 0.3: `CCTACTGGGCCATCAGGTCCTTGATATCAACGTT`
Reply text: not met

Inquiry: // inclusive: PBM binding z-score at least 0.3? input: `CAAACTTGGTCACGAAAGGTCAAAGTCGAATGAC`
Reply text: met

Inquiry: Evaluate `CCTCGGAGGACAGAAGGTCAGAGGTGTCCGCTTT` : PBM binding z-score at minimum 0.3?
Reply text: met

Inquiry: I'd appreciate it if you could say whether `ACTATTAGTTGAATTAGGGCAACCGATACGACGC` has PBM binding z-score at least equal to 0.3.
Reply text: not met

====

tested on: THRa:RXRa (NR concentration 90 nM, RXRa partner concentration 90 nM); test: PBM binding z-score (relative to random genomic background probes); higher = stronger binding; sequences stand for … in GC…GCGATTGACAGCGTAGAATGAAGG
EXPERIMENTAL_ENDPOINT: PBM binding z-score
# output: bare number, no unit

Inquiry: Specify measured PBM binding z-score for `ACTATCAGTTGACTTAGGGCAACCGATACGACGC` .
Reply text: 1.46

Inquiry: // fetch PBM binding z-score given entry `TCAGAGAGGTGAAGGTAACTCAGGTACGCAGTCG`
Reply text: 2.04

Inquiry: Query PBM binding z-score for `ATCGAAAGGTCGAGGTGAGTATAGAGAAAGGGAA`
Reply text: 2.81

Inquiry: Respond only with PBM binding z-score recorded for `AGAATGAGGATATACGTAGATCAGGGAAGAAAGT`
Reply text: 0.415

Inquiry: Please give measured PBM binding z-score of the following entry: `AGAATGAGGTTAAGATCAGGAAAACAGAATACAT`
Reply text: 2.28

Inquiry: Determine its reported PBM binding z-score: `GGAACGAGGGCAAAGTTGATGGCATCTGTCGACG`
Reply text: 1.55

Inquiry: Identify measured PBM binding z-score corresponding to `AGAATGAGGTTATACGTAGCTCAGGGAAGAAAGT`
Reply text: 1.81

Inquiry: Report PBM binding z-score, nothing else, for this sequence: `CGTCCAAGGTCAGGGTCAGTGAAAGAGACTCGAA`
Reply text: 3.9

Inquiry: Find the measured PBM binding z-score of `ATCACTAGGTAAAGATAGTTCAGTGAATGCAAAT` and report it.
Reply text: 0.492

Inquiry: Give the value of PBM binding z-score reported for the following: `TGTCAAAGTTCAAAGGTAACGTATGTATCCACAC`
Reply text: 3.08

Inquiry: Give the value of PBM binding z-score reported for the following: `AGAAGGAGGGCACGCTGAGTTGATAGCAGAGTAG`
Reply text: 1.13

Inquiry: Name the recorded PBM binding z-score of the sequence listed here: `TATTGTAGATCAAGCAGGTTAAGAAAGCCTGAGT`
Reply text: 0.288

Inquiry: Note down PBM binding z-score recorded for `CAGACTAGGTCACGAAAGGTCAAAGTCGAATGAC`
Reply text: 4.96

Inquiry: Provide measured PBM binding z-score value, entry: `TGAAGGAGGTTATAAGATCAGGGAACGTTGCAAA`
Reply text: 0.689

Inquiry: // fetch PBM binding z-score given entry `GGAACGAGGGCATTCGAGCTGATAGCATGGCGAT`
Reply text: 0.7

Inquiry: Output measured PBM binding z-score for this item: `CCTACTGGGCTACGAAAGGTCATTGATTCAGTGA`
Reply text: 3.44

Inquiry: Please report PBM binding z-score for the following sequence: `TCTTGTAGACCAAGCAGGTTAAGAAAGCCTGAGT`
Reply text: 0.395

Inquiry: Return reported PBM binding z-score. Input sequence: `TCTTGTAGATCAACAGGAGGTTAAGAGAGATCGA`
Reply text: 1.01

Inquiry: Output measured PBM binding z-score for this item: `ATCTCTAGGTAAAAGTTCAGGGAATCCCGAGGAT`
Reply text: 1.54

Inquiry: Tell me PBM binding z-score reported for `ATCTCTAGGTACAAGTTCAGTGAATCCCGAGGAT`
Reply text: 0.819

Inquiry: In one line, give reported PBM binding z-score of the entry `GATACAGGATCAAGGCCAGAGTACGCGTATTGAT` .
Reply text: -0.265

Inquiry: Please supply the value of reported PBM binding z-score for the item `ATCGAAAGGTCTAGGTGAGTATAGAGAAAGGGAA`
Reply text: 0.835

Inquiry: // Input: `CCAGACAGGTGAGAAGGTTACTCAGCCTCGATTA` . Output its PBM binding z-score only.
Reply text: 0.657

Inquiry: Check the records and state PBM binding z-score for `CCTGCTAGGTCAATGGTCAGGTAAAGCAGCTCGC`
Reply text: 2.65

Inquiry: Quote PBM binding z-score reported for `ACAGGCAGGTGAGTGAAGGTAACTCAGCTGGACG` please.
Reply text: 1.31

Inquiry: Note down PBM binding z-score recorded for `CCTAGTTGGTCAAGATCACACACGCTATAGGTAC`
Reply text: 0.0913
